Molecular target: Adenosine receptor A2b (Homo sapiens)
Assay: Displacement of [3H]DPCPX from human adenosine A2B receptor expressed in HEK293 cell membranes at 1 uM incubated for 30 mins by scintillation counting method
Conditions: Cell membrane
For each of the compounds below, state its inhibition.
Number in %, nothing else.

Task: Could you share which inhibition value was measured for CCC(C)OC(=O)C1=C(C)NC(=O)NC1c1cccs1 (racemic) ?
Output: 7

Task: Using the record for COC(=O)C1=C(C)NC(=O)NC1c1ccsc1 (racemic) , report its inhibition.
Output: 36

Task: Which inhibition value is on record for CCNC(=O)C1=C(C)NC(=O)NC1c1ccoc1 (racemic) ?
Output: 2

Task: For CC1=C(C(=O)OCC(C)C)C(c2ccco2)NC(=S)N1 (racemic) , what is its reported inhibition?
Output: 18

Task: What value of inhibition has been recorded for this entry: CC(=O)C1=C(C)NC(=O)NC1c1ccoc1 (racemic)
Output: 15

Task: Endpoint output: inhibition of COC(=O)C1=C(C)N(C)C(=O)NC1c1ccsc1 (racemic) . Value?
Output: 26

* * *

Give inhibition for every item shown.
Target: Adenosine receptor A3 (Homo sapiens)
Assay: Displacement of [3H]NECA from adenosine A3 receptor expressed in human HeLa cell membranes at 1 uM incubated for 180 mins by scintillation counting method
Conditions: Cell membrane
Lab book: enter the figure in %, no units written.

Task: For the compound CC1=C(C(=O)OCC(C)C)C(c2ccsc2)NC(=O)N1C (racemic) , what inhibition is on record?
Output: 4

Task: For the compound shown here, CC1=C(C(N)=O)C(c2ccsc2)NC(=O)N1 (racemic) , give the reported inhibition.
Output: 1

Task: Dear colleague, I am looking for the recorded inhibition of the following compound: COC(=O)C1=C(C)NC(=O)NC1c1ccsc1 (racemic)
Output: 3

Task: I am curious: what inhibition value has been reported for CCCOC(=O)C1=C(C)NC(=O)NC1c1cccs1 (racemic) ?
Output: 32

Task: // inhibition lookup, key: CCCOC(=O)C1=C(C)N(C)C(=O)NC1c1ccco1 (racemic)
Output: 8

Task: I would be grateful if you could share the reported inhibition for CC1=C(C(=O)C2CC2)C(c2ccco2)NC(=O)N1 (racemic) .
Output: 7

Task: Returns the measured inhibition for the input compound. Input: CCC(CC)OC(=O)C1=C(C)NC(=O)NC1c1ccsc1 (racemic)
Output: 6

Task: What value of measured inhibition is listed for CCCOC(=O)C1=C(C)NC(=O)NC1c1ccco1 (racemic) ?
Output: 3

Task: For the compound CCCC(=O)C1=C(C)NC(=O)NC1c1ccoc1 (racemic) , what inhibition is on record?
Output: 2

Task: Quick one: inhibition for CC1=C(C(=O)OCc2ccccc2)C(c2cccs2)NC(=O)N1 (racemic) ?
Output: 8

Task: For the compound CC1=C(C(N)=O)C(c2cccs2)NC(=O)N1 (racemic) , what inhibition is on record?
Output: 1

Task: Reported inhibition, compound CCNC(=O)C1=C(C)NC(=O)NC1c1ccsc1 (racemic) : ____
Output: 1

Task: Please report the recorded inhibition for CC1=C(C(=O)CC(C)C)C(c2ccsc2)NC(=O)N1 (racemic) .
Output: 14

Task: Looking for the measured inhibition of CC1=C(C(=O)OCC2CCC2)C(c2ccco2)NC(=O)N1 (racemic) , can you help?
Output: 1

Task: Please give the measured inhibition for this compound: COC(=O)C1=C(C)NC(=S)NC1c1ccsc1 (racemic)
Output: 3
